Test: recombinant UMI read abundance after kanamycin selection (control-corrected) (log10(CPM+1)); higher = more efficient recombination; extreme values may be limits of the assay; sequences stand for … in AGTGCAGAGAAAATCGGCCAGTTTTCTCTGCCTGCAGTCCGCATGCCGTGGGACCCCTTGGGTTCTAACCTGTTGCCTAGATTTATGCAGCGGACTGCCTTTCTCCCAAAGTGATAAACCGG…AGGTTGGTTTCACT; site = the 11-nt donor
recombinant UMI read abundance (log10) listing for selected sequences.
When you answer, write just the number.

TCAGGTTCATGGACCGGTTTTCCCGGTAATCCGTATTTGGA (site TCAGGTTCTTC) | 2.16

Kindly review the next sequence as well.
Quick one: recombinant UMI read abundance (log10) of TCCGGTCCATGGACCGGTTTTCCCGGTAATCCGTATTTGCA (site TCCGGTCCTTG) ?
0

----------
Test: recombinant barcode read abundance after kanamycin selection (control-corrected) (log10(CPM+1)); higher = more efficient recombination; sequences stand for … in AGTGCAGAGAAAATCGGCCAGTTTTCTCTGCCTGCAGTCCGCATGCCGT…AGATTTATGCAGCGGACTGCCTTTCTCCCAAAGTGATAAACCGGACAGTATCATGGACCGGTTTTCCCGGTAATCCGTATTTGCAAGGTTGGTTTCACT; site = the 11-nt target
quantity: recombinant barcode read abundance (log10)
When you answer, write just the number.

TCGGATACTTGGGTTCTAACCTGTTGCTT (site TCGGATACTAG) | 0.759
ACAGATTCTTGGGTTCTAACCTGTTGCCT (site ATAGAGTCTAG) | 0.0143
CTACAGACTTGGGTTCTAACCTGTTGCGT (site CTACAGACTTC) | 0.238
GCACAGTCTTGGGTTCTAACCTGTTGCTT (site GCACAGTCTAA) | 1.93
TACCCGTCTTGGGTTCTAACCTGTTGCTT (site TACCCGTCTAA) | 0.399
CACAACACTTGGGTTCTAACCTGTTGCCT (site CACAGCACTAG) | 0.0135
TGTCTAGCTTGGGTTCTAACCTGTTGCGG (site CCAAATCCTAT) | 0.208
AGAAATACTTGGGTTCTAACCTGTTGCCG (site AGAAATACTCG) | 1.07

Quick one: recombinant barcode read abundance (log10) of CTCAAACCTTGGGTTCTAACCTGTTGCTT (site CTCAAACCTAA) ?
0.355

Quick one: recombinant barcode read abundance (log10) of TACTGATCTTGGGTTCTAACCTGTTGCCT (site TATTGATCTAG) ?
0.0711

----------
Test: recombinant barcode read abundance after kanamycin selection (control-corrected) (log10(CPM+1)); higher = more efficient recombination; sequences stand for … in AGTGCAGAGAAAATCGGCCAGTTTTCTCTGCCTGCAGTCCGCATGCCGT…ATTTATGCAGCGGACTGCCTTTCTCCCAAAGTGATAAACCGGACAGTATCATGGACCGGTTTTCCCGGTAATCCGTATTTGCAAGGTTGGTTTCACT; site = the 11-nt target
recombinant barcode read abundance (log10) listing for selected sequences.
When you answer, write just the number.

TGATACCGGTGGGTTCTAACCTGTTGCGTCC [TGATACCCTAC_LTGcore_GG_RTGcore_GG] (site TGATACCCTAC) (LTG core: GG, RTG core: GG) | 0.115
GAGCCCAACTGGGTTCTAACCTGTTGCCTAG [GAGCCCACTAG_LTGcore_AC_RTGcore_CT] (site GAGCCCACTAG) (LTG core: AC, RTG core: CT) | 0.135
CATATTATCTGGGTTCTAACCTGTTGCCTGA [CATATTACTAG_LTGcore_TC_RTGcore_TC] (site CATATTACTAG) (LTG core: TC, RTG core: TC) | 0.0468

Quick one: recombinant barcode read abundance (log10) of GGGCGTGCATGGGTTCTAACCTGTTGCCTTG [GGGCGTGCTAG_LTGcore_CA_RTGcore_CA] (site GGGCGTGCTAG) (LTG core: CA, RTG core: CA) ?
0.0757

Quick one: recombinant barcode read abundance (log10) of CGAGCCCTGTGGGTTCTAACCTGTTGCTGAG [CGAGCCCCTCA_LTGcore_TG_RTGcore_CT] (site CGAGCCCCTCA) (LTG core: TG, RTG core: CT) ?
0.134

Quick one: recombinant barcode read abundance (log10) of TGTATTCCCTGGGTTCTAACCTGTTGCCTGG [TGTATTCCTAG_LTGcore_CC_RTGcore_CC] (site TGTATTCCTAG) (LTG core: CC, RTG core: CC) ?
0.267

Quick one: recombinant barcode read abundance (log10) of GGTGCCCCTTGGGTTCTAACCTGTTGCCGTA [GGTGCCCCTCG_LTGcore_CT_RTGcore_TA] (site GGTGCCCCTCG) (LTG core: CT, RTG core: TA) ?
0.258

Quick one: recombinant barcode read abundance (log10) of GAGCCCACTTGGGTTCTAACCTGTTGCCTAA [GAGCCCACTAG_LTGcore_CT_RTGcore_TT] (site GAGCCCACTAG) (LTG core: CT, RTG core: TT) ?
0.912

Quick one: recombinant barcode read abundance (log10) of GAGCCCACTTGGGTTCTAACCTGTTGCCTTT [GAGCCCACTAG_LTGcore_CT_RTGcore_AA] (site GAGCCCACTAG) (LTG core: CT, RTG core: AA) ?
0.37

Quick one: recombinant barcode read abundance (log10) of AGGAGGTCTTGGGTTCTAACCTGTTGCCTCG [AGGAGGTCTAG_LTGcore_CT_RTGcore_CG] (site AGGAGGTCTAG) (LTG core: CT, RTG core: CG) ?
0.386

Quick one: recombinant barcode read abundance (log10) of AGGAGGTCTTGGGTTCTAACCTGTTGCCTGT [AGGAGGTCTAG_LTGcore_CT_RTGcore_AC] (site AGGAGGTCTAG) (LTG core: CT, RTG core: AC) ?
0.126
